test system: N2a cells; experiment: Toxicity test (CCK-8 cell proliferation assay) on 3D cell clusters grown on REP-coated plates; assay type: cell-based; details: Mus musculus, N2a; Cell Cluster of Ex. 2 (A), REP-plate; 3 hrs incubation
pIC50: −log10 of the molar value.
quantity kind: pIC50

smiles_structure=O=C(O)C(F)(F)C(F)(F)C(F)(F)C(F)(F)C(F)(F)C(F)(F)C(F)(F)F quantitative_readout=3.20

====

Test system: N2a cells
Experiment: Toxicity test (CCK-8 cell proliferation assay) on cells cultured on plates not coated with REP
Assay type: cell-based
Details: Cultured Cell of C. Ex. 1 (B), 3 hrs incubation
Description: N2a cells ([…], purchased from the ATCC, USA) were seeded at a density of 5x10^5 cells/well into the culture plates coated with REP prepared in Example 1 (hereinafter referred to as "REP-plate"). […] For the cell proliferation assay, absorbance (OD) at 450 nm was measured on an amicroplate reader (Multiskan, Thermo USA). From the measurements, inhibitory concentration (IC50) values were calculated using TOXCALC 5.0 (Tidepool Scientific Software, USA). […]
quantity kind: IC50

compound="O=S(=O)(O)C(F)(F)C(F)(F)C(F)(F)C(F)(F)C(F)(F)C(F)(F)C(F)(F)C(F)(F)F [PFOS, perfluorooctane sulfonates]" result="196 µM"

====

test system: N2a cells; test: Toxicity test (CCK-8 cell proliferation assay) on 3D cell clusters grown on REP-coated plates; format: cell-based; settings: Mus musculus, N2a; Cell Cluster of Ex. 2 (A), REP-plate; 24 hrs incubation
quantity kind: IC50 (µM)

smiles_structure=O=C(O)C(F)(F)C(F)(F)C(F)(F)C(F)(F)C(F)(F)C(F)(F)C(F)(F)F quantitative_readout=495

====

system: N2a cells; test: Toxicity test (CCK-8 cell proliferation assay) on cells cultured on plates not coated with REP; format: cell-based; details: Cultured Cell of C. Ex. 1 (B), 48 hrs incubation
quantity kind: IC50 (µM)

smiles_structure=O=S(=O)(O)C(F)(F)C(F)(F)C(F)(F)C(F)(F)C(F)(F)C(F)(F)C(F)(F)C(F)(F)F target_or_system="N2a cells" quantitative_readout=220

====

test system: N2a cells; assay: Toxicity test (CCK-8 cell proliferation assay) on 3D cell clusters grown on REP-coated plates; format: cell-based; settings: Cell Cluster of Ex. 2 (A), REP-plate; 3 hrs incubation
pIC50: −log10 of the molar value.
quantity kind: pIC50

smiles_structure=O=S(=O)(O)C(F)(F)C(F)(F)C(F)(F)C(F)(F)C(F)(F)C(F)(F)C(F)(F)C(F)(F)F quantitative_readout=3.33

====

tested on: N2a cells; experiment: Toxicity test (CCK-8 cell proliferation assay) on 3D cell clusters grown on REP-coated plates; type: cell-based; settings: Cell Cluster of Ex. 2 (A), REP-plate; 48 hrs incubation
pIC50: −log10 of the molar value.
quantity kind: pIC50

smiles_structure=O=S(=O)(O)C(F)(F)C(F)(F)C(F)(F)C(F)(F)C(F)(F)C(F)(F)C(F)(F)C(F)(F)F quantity_kind=pIC50 quantitative_readout=3.52

====

System: N2a cells
Experiment: Toxicity test (CCK-8 cell proliferation assay) on cells cultured on plates not coated with REP
Format: cell-based
Details: Mus musculus, N2a, Cultured Cell of C. Ex. 1 (B), 3 hrs incubation
Method: N2a cells ([…], purchased from the ATCC, USA) were seeded at a density of 5x10^5 cells/well into the culture plates coated with REP prepared in Example 1 (hereinafter referred to as "REP-plate"). […] For the cell proliferation assay, absorbance (OD) at 450 nm was measured on an amicroplate reader (Multiskan, Thermo USA). From the measurements, inhibitory concentration (IC50) values were calculated using TOXCALC 5.0 (Tidepool Scientific Software, USA). […]
quantity kind: IC50 (µM)

compound="O=C(O)C(F)(F)C(F)(F)C(F)(F)C(F)(F)C(F)(F)C(F)(F)C(F)(F)F [PFOA, perfluorooctanoic acid]" result_unit=µM quantitative_readout=511
